The reported numbers originate from patent US12083101B2.

molecular target: Avi-humanTEAD4 217-434 / Cy5 labeled humanYAP 60-100 (Homo sapiens (Human), UniProt Q15561); experiment: TR-FRET YAP-TEAD4 in-vitro biochemical assay; settings: 1 nM Avi-humanTEAD4 217-434, 20 nM Cy5-humanYAP 60-100, 1 h room temperature
Sequence (Q15561 217-434): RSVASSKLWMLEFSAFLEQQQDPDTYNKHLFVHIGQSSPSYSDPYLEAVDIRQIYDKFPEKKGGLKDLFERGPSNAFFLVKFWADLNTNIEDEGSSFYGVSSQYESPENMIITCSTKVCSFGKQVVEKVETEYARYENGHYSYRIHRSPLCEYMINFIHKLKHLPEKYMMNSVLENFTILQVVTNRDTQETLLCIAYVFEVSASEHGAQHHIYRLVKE
readout kind: IC50 (nM)
Respond numerically; units are nM and should not be typed.

Solved cases below.
| compound | uom | IC50 |
| --- | --- | --- |
| NC(=O)c1ccc(OC(F)F)c(F)c1-c1c(Cl)c(F)cc2c1C[C@@](CNC1CC3(CC(O)C3)C1)(c1ccccc1)O2 (single isomer, unassigned) [Example 85b] | nM | 7 |
| COc1ccc(C(N)=O)c(-c2c(Cl)c(F)cc3c2[C@H](OC)[C@](c2ccccc2)(C2CCCN2)O3)c1F (stereo partly drawn) [Example 165] | nM | 5 |
| NC[C@@]1(c2ccccc2)Cc2c(ccc(Cl)c2-c2c(C(N)=O)cnc(OC(F)F)c2F)O1 (atropisomer, axis not shown) [Example 19] | nM | 3 |
| CO[C@H]1CC[C@@H](NC[C@]2(c3ccccc3)Oc3cc(F)c(Cl)c(-c4c(C(N)=O)ccc(OC(F)F)c4F)c3[C@@H]2O)CC1 (relative stereo) [Example 136a] | nM | 7 |
| COc1ccc(C(N)=O)c(-c2c(Cl)c(F)cc3c2[C@H](O)[C@@](CN)(c2ccccc2)O3)c1F (atropisomer, axis not shown) [Example 97] | nM | 4 |
| CNC(=O)c1cnc(OCCO)c(F)c1-c1c(Cl)c(F)cc2c1C[C@@](CN)(c1ccccc1)O2 (atropisomer, axis not shown) [Example 45] | nM | 10 |
| NC(=O)c1ccc(OC(F)F)c(F)c1-c1c(Cl)c(F)cc2c1C[C@@](CNCCN1CCCC1=O)(c1ccccc1)O2 (atropisomer, axis not shown) [Example 78] | nM | 160 |
| C[C@@H](CO)NC[C@@]1(c2ccccc2)Cc2c(cc(F)c(Cl)c2-c2c(C(N)=O)ccc(OC(F)F)c2F)O1 (atropisomer, axis not shown) [Example 75] | nM | 38 |
| COc1ccc(C(N)=O)c(-c2c(Cl)c(F)cc3c2C[C@](c2ccccc2)([C@@H]2CCCN2)O3)c1F [Example 174] | nM | 3 |
| COCCOc1ccc(C(N)=O)c(-c2c(Cl)ccc3c2[C@H](O)[C@@](CN)(c2ccccc2)O3)c1F (atropisomer, axis not shown) [Example 88] | nM | 7 |

Prompt: Assign IC50 to the following record: NC(=O)c1ccc(OCCO)c(F)c1-c1c(Cl)c(F)cc2c1C[C@](c1ccccc1)([C@@H]1CCCN1)N2 (atropisomer, axis not shown) [Example 170]
Response: 1

Prompt: Assign IC50 to the following record: C[C@H](O)COc1ccc(C(N)=O)c(-c2c(Cl)c(F)cc3c2C[C@](c2ccccc2)(C2CC(C)(O)CN2)O3)c1F (stereo partly drawn) [Example 159]
Response: 122

====

target: Avi-humanTEAD4 217-434 / Cy5 labeled humanYAP 60-100 (Homo sapiens (Human)); test: TR-FRET YAP-TEAD4 in-vitro biochemical assay; settings: 1 nM Avi-humanTEAD4 217-434, 20 nM Cy5-humanYAP 60-100, 1 h room temperature
The label is MET for IC50 below 5 nM and NOT MET for IC50 equal to or exceeding 5 nM.

| molecule | assay target | class label |
| --- | --- | --- |
| NC[C@@]1(c2ccccc2)Cc2c(cc(F)c(Cl)c2-c2c(C(N)=O)ccc(OC(F)F)c2F)O1 (atropisomer, axis not shown) | Avi-humanTEAD4 217-434 / Cy5 labeled humanYAP 60-100 (Homo sapiens (Human)) | NOT MET |
| CNC(=O)c1ccc(OCCO)c(F)c1-c1c(Cl)c(F)cc2c1C[C@](c1ccccc1)([C@@H]1CCCCN1)O2 (atropisomer, axis not shown) | Avi-humanTEAD4 217-434 / Cy5 labeled humanYAP 60-100 (Homo sapiens (Human)) | NOT MET |
| NC[C@@]1(c2ccccc2)Cc2c(ccc(Cl)c2-c2c(C(N)=O)ccc(OC(F)F)c2F)O1 (atropisomer, axis not shown) | Avi-humanTEAD4 217-434 / Cy5 labeled humanYAP 60-100 (Homo sapiens (Human)) | NOT MET |
| COc1cccc([C@@]2(CN)Oc3ccc(Cl)c(-c4c(C(N)=O)ccc(OC(F)F)c4F)c3[C@@H]2O)n1 (atropisomer, axis not shown) | Avi-humanTEAD4 217-434 / Cy5 labeled humanYAP 60-100 (Homo sapiens (Human)) | NOT MET |

Next item in the queue.
Prompt: Problem: For the molecule NC(=O)c1ccc(OCCO)c(F)c1-c1c(Cl)c(F)cc2c1C[C@@](CN[C@H]1C[C@H](CO)C1)(c1ccccc1)O2 (atropisomer, axis not shown) [Example 64a] , is IC50 under 5 nM?
Response: MET

====

tested on: MKN-45/Ubc-luc cells; assay: Proliferation assay (resazurin), MKN-45; type: cell-based; details: 72 hours incubation
readout kind: GI50

| compound | GI50 |
| --- | --- |
| NC(=O)c1ccc(OC(F)F)c(F)c1-c1c(Cl)ccc2c1[C@H](O)[C@@](CN[C@H]1CC[C@@H](O)CC1)(c1ccccc1)O2 (relative stereo) [Example 94b] | > 10 µM |

Prompt: Assign GI50 to the following record: NC(=O)c1ccc(OCCO)c(F)c1-c1c(Cl)c(F)cc2c1C[C@@](CN[C@H]1C[C@H](C(F)F)C1)(c1ccccc1)O2 (relative stereo) [Example 140b]
Response: > 10 µM

Prompt: Assign GI50 to the following record: CC(C)(O)C1CC(NC[C@@]2(c3ccccc3)Cc3c(cc(F)c(Cl)c3-c3c(C(N)=O)ccc(OC(F)F)c3F)O2)C1 (single isomer, unassigned) [Example 62b]
Response: > 10 µM

Prompt: Assign GI50 to the following record: COc1ccc(C(N)=O)c(-c2c(Cl)c(F)cc3c2C[C@](c2ccccc2)([C@@H]2CCCN2)O3)c1F
Response: 11 µM

Prompt: Assign GI50 to the following record: CNC(=O)c1ccc(OC)c(F)c1-c1c(Cl)c(F)cc2c1C[C@](c1ccccc1)([C@@H]1CCCN1)O2
Response: 7 µM

Prompt: Assign GI50 to the following record: C[C@H]1c2c(ccc(Cl)c2-c2c(C(N)=O)ccc(OC(F)F)c2F)O[C@]1(CN[C@H]1CC[C@](C)(O)CC1)c1ccccc1 (relative stereo) [Example 104b]
Response: > 10 µM

Prompt: Assign GI50 to the following record: CN(C)C(=O)C1CCC(NC[C@@]2(c3ccccc3)Cc3c(cc(F)c(Cl)c3-c3c(C(N)=O)ccc(OC(F)F)c3F)O2)CC1 (single isomer, unassigned) [Example 58b]
Response: > 10 µM

Prompt: Assign GI50 to the following record: NC(=O)c1ccc(OC(F)F)c(F)c1-c1c(Cl)c(F)cc2c1C[C@@](CN[C@H]1CC[C@@H](O)[C@H](F)C1)(c1ccccc1)O2 (atropisomer, axis not shown) [Example 81b]
Response: > 10 µM

Prompt: Assign GI50 to the following record: NC(=O)c1ccc(OCCO)c(F)c1-c1c(Cl)c(F)cc2c1C[C@@](CN[C@H]1C[C@@H](C(F)F)C1)(c1ccccc1)O2 (relative stereo) [Example 140a]
Response: > 10 µM

Prompt: Assign GI50 to the following record: COc1ccc(C(N)=O)c(-c2c(Cl)ccc3c2C[C@@](CN)(c2ccccc2)O3)c1F (single isomer, unassigned) [Example 5b]
Response: > 10 µM

Prompt: Assign GI50 to the following record: COc1ccc(C(N)=O)c(-c2c(Cl)ccc3c2C[C@@](CN[C@H]2CC[C@H](O)CC2)(c2ccccc2)O3)c1F (relative stereo) [Example 27a]
Response: > 10 µM

====

target: Avi-humanTEAD4 217-434 / Cy5 labeled humanYAP 60-100 (Homo sapiens (Human), UniProt Q15561); test: TR-FRET YAP-TEAD4 in-vitro biochemical assay; conditions: 1 nM Avi-humanTEAD4 217-434, 20 nM Cy5-humanYAP 60-100, 1 h room temperature
readout kind: log10(IC50) (log10 of the value in nM)
Note: values are log10 of IC50 expressed in nM.

| compound | log10(IC50) |
| --- | --- |
| NC[C@@]1(c2ccccc2)Cc2c(cc(F)c(Cl)c2-c2c(C(N)=O)ccc(OC(F)(F)CO)c2F)O1 (atropisomer, axis not shown) | 1.00 |
| NC(=O)c1ccc(OC(F)F)c(F)c1-c1c(Cl)c(F)cc2c1C[C@@](CNC1CCC3(CCC(=O)N3)CC1)(c1ccccc1)O2 (single isomer, unassigned) [Example 59a] | 0.78 |
| C[C@H](O)COc1ccc(C(N)=O)c(-c2c(Cl)c(F)cc3c2[C@H](C)[C@@](CN[C@H]2CC[C@@](C)(O)CC2)(c2ccccc2)O3)c1F (atropisomer, axis not shown) [Example 114b] | 0.30 |
| CN(C)C(=O)C1CCC(NC[C@@]2(c3ccccc3)Cc3c(cc(F)c(Cl)c3-c3c(C(N)=O)ccc(OC(F)F)c3F)O2)CC1 (single isomer, unassigned) [Example 58a] | 0.60 |
| COc1ccc(C(N)=O)c(-c2c(Cl)c(F)cc3c2C[C@](c2ccccc2)([C@@H]2CCCN2)N3)c1F (atropisomer, axis not shown) | 0.30 |

Prompt: Assign log10(IC50) to the following record: NC(=O)c1ccc(OC(F)F)c(F)c1-c1c(Cl)c(F)cc2c1C[C@@](CN[C@H]1CC[C@@H](O)[C@H](F)C1)(c1ccccc1)O2 (atropisomer, axis not shown) [Example 81b]
Response: 1.51

Prompt: Assign log10(IC50) to the following record: CC(=O)N1CCC(NC[C@@]2(c3ccccc3)Cc3c(cc(F)c(Cl)c3-c3c(C(N)=O)ccc(OC(F)F)c3F)O2)CC1 (atropisomer, axis not shown)
Response: 1.30

Prompt: Assign log10(IC50) to the following record: CNC(=O)c1cnc(OCC(=O)O)c(F)c1-c1c(Cl)c(F)cc2c1C[C@](c1ccccc1)([C@@H]1CCCN1)O2
Response: 1.04

Prompt: Assign log10(IC50) to the following record: NC(=O)c1ccc(OC(F)F)c(F)c1-c1c(Cl)c(F)cc2c1[C@H](O)[C@@](CN[C@H]1CC[C@@H](O)CC1)(c1ccccc1)O2 (relative stereo) [Example 100b]
Response: 0.70

Prompt: Assign log10(IC50) to the following record: NC[C@@]1(c2ccccc2)Cc2c(cc(F)c(Cl)c2-c2c(C(N)=O)cnc(OCCO)c2F)O1 (atropisomer, axis not shown)
Response: 0.70

Prompt: Assign log10(IC50) to the following record: NC(=O)c1ccc(OC(F)F)c(F)c1-c1c(Cl)c(F)cc2c1C[C@@](CN[C@H]1CC[C@@H](O)[C@H](F)C1)(c1ccccc1)O2 (atropisomer, axis not shown) [Example 81a]
Response: 1.52
